- Tested on: FXR:RXRa (NR concentration 270 nM, RXRa partner concentration 90 nM)
- Assay protocol: PBM binding z-score (relative to random genomic background probes); higher = stronger binding; sequences stand for … in GC…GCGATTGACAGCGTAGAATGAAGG
Field: PBM binding z-score. Provide a value for each of the sequences that follow.

Would you please look over these solved cases?
Polymer sequence: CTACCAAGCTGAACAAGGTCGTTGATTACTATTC
PBM binding z-score: 0.51
//
Polymer sequence: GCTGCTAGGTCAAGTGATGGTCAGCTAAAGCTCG
PBM binding z-score: 4.09

With those in mind, consider the next sequence.
-- ask Endpoint output: PBM binding z-score of `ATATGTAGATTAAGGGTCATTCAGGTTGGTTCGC` . Value?
-- reply 3.93

---

- Test system: PPARg:RXRa IVT, anti-PPARg (NR concentration 270 nM, RXRa partner concentration 90 nM)
- Assay protocol: PBM binding z-score (relative to random genomic background probes); higher = stronger binding; sequences stand for … in GC…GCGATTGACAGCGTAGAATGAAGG
Measured attribute: PBM binding z-score
One number for each entry.

These recorded examples may help you get a feel for the data.
Polymer sequence: GCTTGTAGATCAAGGTTAAGCAAGACTAAGCTAA
Study target: PPARg:RXRa IVT, anti-PPARg (NR concentration 270 nM, RXRa partner concentration 90 nM)
PBM binding z-score: 1.36
//
Polymer sequence: CGAACTAGGTCAGTGACAGGACAGTGAATAGTAA
Study target: PPARg:RXRa IVT, anti-PPARg (NR concentration 270 nM, RXRa partner concentration 90 nM)
PBM binding z-score: 7.6

Parameters: items (list). Returns: PBM binding z-score for each item.
1. CCAGACAGGTGAGAAGGTAACCCAGCCTCGATTA
2. GCTCGGAGGACAAGGACAGAGCTTTGTCCGTAGA
3. TCTGCTGGGTCAGTTGGTCAGCTAACGAGCTGCC

-- reply
[0.79, -0.505, 2.74]

Dear colleague, could you send me PBM binding z-score for each of the items below? Thanks.
1. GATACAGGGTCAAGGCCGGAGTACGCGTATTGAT
2. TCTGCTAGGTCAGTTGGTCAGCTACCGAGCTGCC
3. TCTTGTAGATCAACGGTTAAGAAAGCCGAAGCCT

-- reply
3.81
3.45
0.568

---

- Tested on: VDR:RXRa (NR concentration 270 nM, RXRa partner concentration 90 nM)
- Assay protocol: PBM binding z-score (relative to random genomic background probes); higher = stronger binding; sequences stand for … in GC…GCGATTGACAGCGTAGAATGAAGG
Measured attribute: PBM binding z-score
Give bare numbers.

Record excerpt, results attached:
Polymer sequence: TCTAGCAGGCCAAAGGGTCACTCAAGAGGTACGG
Measured attribute: PBM binding z-score
Value measured: 3.12

Polymer sequence: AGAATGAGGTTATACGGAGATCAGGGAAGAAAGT
Measured attribute: PBM binding z-score
Value measured: 1.56

Polymer sequence: GCTGCTAGGTCAACTGATTGTCAGCTAAAGCTCG
Measured attribute: PBM binding z-score
Value measured: 1.14

Polymer sequence: GCAGACAGGTGAAACGCACGTAACTCAGGGTGGC
Measured attribute: PBM binding z-score
Value measured: -0.568

Polymer sequence: TAGCCTAGGTCATGCGGGCCAGTACAGTGTCGGC
Measured attribute: PBM binding z-score
Value measured: 2.83

Polymer sequence: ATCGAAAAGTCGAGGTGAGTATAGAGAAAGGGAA
Measured attribute: PBM binding z-score
Value measured: -0.237

Polymer sequence: TCATATAGGTAAACGTGAAAGTCGAACGATATGA
Measured attribute: PBM binding z-score
Value measured: 0.503

Polymer sequence: CCTTACGTGTCACGAGGTTATAGCACGACGAGCG
Measured attribute: PBM binding z-score
Value measured: 1.89

Polymer sequence: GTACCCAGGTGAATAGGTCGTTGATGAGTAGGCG
Measured attribute: PBM binding z-score
Value measured: 0.54

Polymer sequence: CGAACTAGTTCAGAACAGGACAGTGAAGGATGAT
Measured attribute: PBM binding z-score
Value measured: -0.0284

# return PBM binding z-score for each item in the list
1. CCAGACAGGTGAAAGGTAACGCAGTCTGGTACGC
2. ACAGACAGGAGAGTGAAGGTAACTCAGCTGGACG

-- reply
[0.77, -0.068]

-- ask Param readout = PBM binding z-score; param system = VDR:RXRa (NR concentration 270 nM, RXRa partner concentration 90 nM); param query = `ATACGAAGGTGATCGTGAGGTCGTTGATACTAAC` ; response: value
-- reply 3.09

---

Kindly state PBM binding z-score for each of the entries shown.
- Tested on: PPARg:RXRa DBDmut IVT, anti-RXR (DBD mutation: RXRa K156A/R161A, NR concentration 270 nM, RXRa partner concentration 90 nM)
- Assay protocol: PBM binding z-score (relative to random genomic background probes); higher = stronger binding; sequences stand for … in GC…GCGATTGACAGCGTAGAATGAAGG
Give bare numbers.

Polymer sequence: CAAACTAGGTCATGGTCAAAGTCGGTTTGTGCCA
PBM binding z-score: 8.43

Polymer sequence: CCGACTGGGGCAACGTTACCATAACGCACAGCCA
PBM binding z-score: 4.02

Polymer sequence: TCATATAGGTAATACAGGTGTAAGTCGGCATCTA
PBM binding z-score: 3.63

Polymer sequence: CCTTACGGGTCACTCCAGGGTATAGCATCGGAGT
PBM binding z-score: 2.07

Polymer sequence: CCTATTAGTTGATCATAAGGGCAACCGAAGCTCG
PBM binding z-score: 0.357

Would you mind listing PBM binding z-score for each of the following sequences?
1. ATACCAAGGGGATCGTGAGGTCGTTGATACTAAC
2. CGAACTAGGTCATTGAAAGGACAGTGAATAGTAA

-- reply
1: -0.449; 2: 8.01

---

- System: PXR:RXRa (NR concentration 270 nM, RXRa partner concentration 90 nM)
- Assay protocol: PBM binding z-score (relative to random genomic background probes); higher = stronger binding; sequences stand for … in GC…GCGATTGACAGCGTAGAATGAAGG
Decide using PBM binding z-score: a value greater than or equal to 0.7 is y, a smaller one is n.

Here are 3 sequences together with their reported answers.
Polymer sequence: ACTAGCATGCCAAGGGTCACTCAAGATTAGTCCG
Study target: PXR:RXRa (NR concentration 270 nM, RXRa partner concentration 90 nM)
Answer label: y
--
Polymer sequence: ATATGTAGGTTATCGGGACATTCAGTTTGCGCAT
Study target: PXR:RXRa (NR concentration 270 nM, RXRa partner concentration 90 nM)
Answer label: n
--
Polymer sequence: CCTACTGGGCCAAAAAAGTCATTGATGCCGATAA
Study target: PXR:RXRa (NR concentration 270 nM, RXRa partner concentration 90 nM)
Answer label: n

Here's the next entry for you.
-- ask Answer whether PBM binding z-score of `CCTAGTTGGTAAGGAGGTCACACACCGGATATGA` is greater than or equal to 0.7.
-- reply y

---

- Test system: FXR:RXRa (NR concentration 270 nM, RXRa partner concentration 90 nM)
- Assay protocol: PBM binding z-score (relative to random genomic background probes); higher = stronger binding; sequences stand for … in GC…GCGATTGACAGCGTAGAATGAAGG
Measured attribute: PBM binding z-score
Answers are plain numbers.

Working through the 5 sequences below one at a time, give PBM binding z-score for each.
1. ACTAGTTGGTCAGCTGAGGTCAGACACAATTCGG
2. AGAATGAGGTTATACGTAGATCACGGAAGAAAGT
3. CAAACTAGGTGACGAAAGGTCAAAGTCGAATGAC
4. CCGACTGAGGCAGAAAGGTTACCATACCATCCGG
5. GCAGACAGGTGAAACGTAGGTAACTCAGGGTGGC

-- reply
1. 2.41
2. 2.18
3. 5.48
4. 0.495
5. -0.116

Answer for every listed entry: what is its PBM binding z-score? The entries follow.
1. CCTCGGTGGACAACAGGAGGTCAGAGCTGCCAGA
2. ATACCAACGTGATCGTGAGGTCGTTGATACTAAC
3. TCTTATAGGTAAAAGGTGAAAGTCGGTGTGGTAA
4. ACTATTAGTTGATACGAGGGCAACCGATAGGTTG
5. CTAACGAGGGCATGAGTTGATAGCAAATGCCGAT
6. GTACCAAGGTGAAGAGGTCGTTGATGAGTAGGCG
7. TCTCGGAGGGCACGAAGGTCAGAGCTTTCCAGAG

-- reply
0.578
0.885
2.14
0.829
0.543
1.67
1.96

Please give PBM binding z-score, item by item, for the list that follows.
1. CCGACTGGGGCATAAGGCTACCATAAGCCAGCCC
2. ACTCGGAGGACTAAGGTCAGAGCTACGCCAGTGA
3. TAGCCTAGGTCATGGGCCAGTATGCCACGCGAAC

-- reply
[-0.264, 1.93, 4.69]

Origin of the recorded values: the supplement of paper PMC6555819
